Recorded MIC values for a group of compounds are listed next.
test system: Klebsiella pneumoniae; experiment: Antibacterial activity against Klebsiella pneumoniae 09-23 after 18 to 24 hrs by NCCLS M100-S11 two fold serial dilution method; format: functional
Just the number in µg/mL, nothing appended.

[[record]]
compound = "COc1c(N2CCN(CC/C(C)=N/O)C(C)C2)c(F)cc2c(=O)c(C(=O)O)cn(C3CC3)c12 (stereo not given)"
measurement = 8


Prompt: Quick check: MIC of COc1c(N2CCN(C/C(C)=N/NC(=O)c3ccncc3)C(C)C2)c(F)cc2c(=O)c(C(=O)O)cn(C3CC3)c12 (stereo not given) ?
Response: 32

Prompt: Also COc1c(N2CCN(C/C(C)=N/NC(C)=O)C(C)C2)c(F)cc2c(=O)c(C(=O)O)cn(C3CC3)c12 (stereo not given) , if possible.
Response: 4

Prompt: Consider next the compound `C[C@H]1COc2c(N3CCN(C)CC3)c(F)cc3c(=O)c(C(=O)O)cn1c23.C[C@H]1COc2c(N3CCN(C)CC3)c(F)cc3c(=O)c(C(=O)O)cn1c23.O` in the same way.
Response: 8

Prompt: Next compound up: COc1c(N2CCN(CC/C(C)=N/NC(N)=O)C(C)C2)c(F)cc2c(=O)c(C(=O)O)cn(C3CC3)c12 (stereo not given)
Response: 2
